These measurements were taken from ChEMBL document CHEMBL1201862.

Target: Nonstructural protein 1 (Influenza A virus, UniProt Q194T2)
Sequence (Q194T2 whole entry): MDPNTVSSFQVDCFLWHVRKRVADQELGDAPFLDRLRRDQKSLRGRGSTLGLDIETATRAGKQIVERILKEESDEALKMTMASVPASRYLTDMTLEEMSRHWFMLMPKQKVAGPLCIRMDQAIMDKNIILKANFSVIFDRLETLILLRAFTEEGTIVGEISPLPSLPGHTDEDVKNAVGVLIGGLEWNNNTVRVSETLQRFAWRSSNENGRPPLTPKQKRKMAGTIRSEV
Type: functional, Influenza A virus (A/California/07/2009(H1N1))
Activity calls are given as the source filed them.
Quick list: IC50 per entry.

• Cc1ccc(C)c(NC(=O)CSc2n[nH]c(-c3ccccn3)n2)c1 = 5.46 µM (active)
• c1cncc(C2Nc3cccc4cccc(c34)N2)c1 = > 100 µM (active)
• CN(C)c1ccc(NC(=O)CC(NCc2ccccn2)C(=O)O)cc1 (centres undefined) = 1.51 µM (active)

# input for lookup
Field request: IC50 | item: "CCCCCCCSc1cc(OC)c(CCN(C)C)cc1OC"
44.4 µM (active)

----------
Target: Short transient receptor potential channel 4 (Mus musculus, UniProt Q9QUQ5)
Sequence (Q9QUQ5 whole entry): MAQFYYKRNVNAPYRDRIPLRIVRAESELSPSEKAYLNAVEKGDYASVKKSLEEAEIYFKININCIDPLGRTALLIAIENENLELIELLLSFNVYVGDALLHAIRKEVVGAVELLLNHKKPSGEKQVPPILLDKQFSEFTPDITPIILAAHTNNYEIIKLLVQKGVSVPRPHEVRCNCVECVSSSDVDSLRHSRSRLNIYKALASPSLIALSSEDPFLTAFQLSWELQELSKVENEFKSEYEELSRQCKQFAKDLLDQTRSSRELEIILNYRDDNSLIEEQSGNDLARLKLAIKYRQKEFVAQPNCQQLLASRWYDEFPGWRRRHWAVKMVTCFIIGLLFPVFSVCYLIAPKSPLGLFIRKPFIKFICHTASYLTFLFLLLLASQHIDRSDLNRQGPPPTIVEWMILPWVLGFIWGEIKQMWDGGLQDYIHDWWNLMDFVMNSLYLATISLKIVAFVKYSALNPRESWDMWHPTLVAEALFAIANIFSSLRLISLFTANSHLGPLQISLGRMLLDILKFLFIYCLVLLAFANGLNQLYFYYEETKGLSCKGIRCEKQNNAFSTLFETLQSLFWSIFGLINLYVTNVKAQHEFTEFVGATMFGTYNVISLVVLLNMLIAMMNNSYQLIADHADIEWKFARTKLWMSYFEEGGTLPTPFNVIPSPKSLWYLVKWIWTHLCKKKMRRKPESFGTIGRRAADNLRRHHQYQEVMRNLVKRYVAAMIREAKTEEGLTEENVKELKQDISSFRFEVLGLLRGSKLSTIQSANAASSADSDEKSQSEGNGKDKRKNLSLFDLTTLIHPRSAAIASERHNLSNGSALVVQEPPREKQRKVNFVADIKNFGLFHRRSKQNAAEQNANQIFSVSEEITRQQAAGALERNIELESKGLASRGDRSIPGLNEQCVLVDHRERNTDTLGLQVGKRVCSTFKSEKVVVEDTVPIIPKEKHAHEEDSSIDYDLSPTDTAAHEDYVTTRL
Test: block of DAMGO-driven TRPC4 calcium entry – cell-based, HEK293 TRPC4/mu-opioid, Fluo-4 calcium, dose response (AID 434942);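 note: potency of inhibitors blocking the TRPC4 calcium response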
Assay type: functional
Active and inactive are the calls of the source.
Quick list: EC50 per entry.

Example molecules with recorded EC50:
* O=C(c1cccc(C(=O)N2CCN(c3ccccc3)CC2)c1)N1CCN(c2ccccc2)CC1 | 1060 nM (active)
* CN(C)CCN(C(=O)C1CCCCC1)c1nc2cc3c(cc2s1)OCO3 | 2660 nM (active)
* Cc1ccc(S(=O)(=O)Nc2cccc(C(=O)NCC(c3ccco3)N3CCCC3)c2)cc1F (centres undefined) | 149 nM (active)

# input for lookup
Field request: EC50 | item: CCCCc1nc(CN2CCCC(C(=O)c3ccc(SC)cc3)C2)c[nH]1 (centres undefined)
1880 nM (active)

----------
Target: RNA-binding protein pos-1 (Caenorhabditis elegans, UniProt G5EF15)
Sequence (G5EF15 whole entry): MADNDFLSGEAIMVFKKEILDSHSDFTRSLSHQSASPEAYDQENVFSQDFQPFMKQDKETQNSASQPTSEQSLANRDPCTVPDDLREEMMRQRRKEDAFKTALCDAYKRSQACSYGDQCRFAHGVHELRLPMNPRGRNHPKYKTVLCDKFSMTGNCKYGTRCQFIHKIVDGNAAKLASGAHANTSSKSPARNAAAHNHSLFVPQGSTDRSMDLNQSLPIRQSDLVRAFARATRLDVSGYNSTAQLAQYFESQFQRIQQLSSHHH
Test: disruptors of C. elegans POS-1 RNA interaction – biochemical, fluorescence polarization, dose response (AID 1964);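 note: purified POS-1 fused to maltose binding protein made in E. coli; potency of compounds blocking POS-1 binding to fluorescent RNA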
Active and inactive are the calls of the source.
Quick list: EC50 per entry.

Example compounds with recorded EC50:
• CCCCC1=CC2=C(c3ccco3)C(=O)C(C)(OC(=O)c3ccc(OC)cc3)C(=O)C2=CN1C1CC1 (configuration not stated) = > 300 µM (not active)
• CCN(CC)c1ccc(C=C2C(=O)OC(C)(C(C)(C)C)OC2=O)cc1 (configuration not stated) = > 300 µM (inconclusive)
• Oc1ccc(-c2csc(Nc3ccccn3)n2)cc1O = 74.1 µM (active)

# input for lookup
Field request: EC50 | item: "O=C(CCSc1nc2ccccc2s1)N/N=C/c1c(O)ccc2ccccc12"
21.2 µM (active)

----------
Biological target: UniProtKB O75030
Sequence (O75030 whole entry): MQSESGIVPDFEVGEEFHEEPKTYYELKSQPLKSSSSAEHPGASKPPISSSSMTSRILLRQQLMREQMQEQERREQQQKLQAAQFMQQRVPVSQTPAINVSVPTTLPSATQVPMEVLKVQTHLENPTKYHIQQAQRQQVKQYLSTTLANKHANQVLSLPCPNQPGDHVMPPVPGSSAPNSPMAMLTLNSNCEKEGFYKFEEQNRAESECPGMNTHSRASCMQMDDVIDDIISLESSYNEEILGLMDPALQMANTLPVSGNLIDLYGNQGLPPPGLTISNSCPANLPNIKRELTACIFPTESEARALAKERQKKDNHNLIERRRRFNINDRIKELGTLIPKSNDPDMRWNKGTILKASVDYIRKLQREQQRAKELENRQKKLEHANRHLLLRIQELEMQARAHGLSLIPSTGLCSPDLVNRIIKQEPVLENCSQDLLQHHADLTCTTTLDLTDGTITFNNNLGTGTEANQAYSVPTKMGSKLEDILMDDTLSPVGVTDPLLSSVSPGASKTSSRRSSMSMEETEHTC
Experiment: reducers of TRPM1 reporter luminescence, concentration series – cell-based, SK-MEL-5, cherry-picked, set 3, MITF inhibitor project, dose response (AID 493073);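 note: SK-MEL-5 melanoma cells with luciferase driven by the MITF target TRPM1 promoter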
Type: functional
Active and inactive are the calls of the source.
Quick list: AC50 per entry.

Example molecules with recorded AC50:
• COc1cccc(C(=O)Oc2c(CN3CCOCC3)cc(Cl)c3cccnc23)c1 = 9.9 µM (active)
• COc1ccccc1OCCN1CSC(=S)N(C)C1 = 12.2 µM (active)
• C=CCN1C(=O)NC(=O)/C(=C/C=C/c2ccccc2)C1=O = 5.94 µM (active)

Field request: AC50 | item: "O=C(Nc1ccc(S(=O)(=O)N2CCCCCC2)cc1)c1n[nH]cc1[N+](=O)[O-]"
4.02 µM (active)

Field request: AC50 | item: "COc1ccccc1NS(=O)(=O)c1cc(NC(=O)c2ccc(Cl)nc2)ccc1Cl"
11.3 µM (active)

Field request: AC50 | item: "CCOCCCNC(=O)/C(C#N)=C/c1ccc(Cl)c([N+](=O)[O-])c1"
7.38 µM (active)

Field request: AC50 | item: "c1ccc(-c2cn3nc4c(nc3n2)CCCC4)cc1"
5.89 µM (active)

----------
Quick list: IC50 per entry.
Target: Polyadenylate-binding protein 1 (Homo sapiens, UniProt P11940)
Sequence (P11940 whole entry): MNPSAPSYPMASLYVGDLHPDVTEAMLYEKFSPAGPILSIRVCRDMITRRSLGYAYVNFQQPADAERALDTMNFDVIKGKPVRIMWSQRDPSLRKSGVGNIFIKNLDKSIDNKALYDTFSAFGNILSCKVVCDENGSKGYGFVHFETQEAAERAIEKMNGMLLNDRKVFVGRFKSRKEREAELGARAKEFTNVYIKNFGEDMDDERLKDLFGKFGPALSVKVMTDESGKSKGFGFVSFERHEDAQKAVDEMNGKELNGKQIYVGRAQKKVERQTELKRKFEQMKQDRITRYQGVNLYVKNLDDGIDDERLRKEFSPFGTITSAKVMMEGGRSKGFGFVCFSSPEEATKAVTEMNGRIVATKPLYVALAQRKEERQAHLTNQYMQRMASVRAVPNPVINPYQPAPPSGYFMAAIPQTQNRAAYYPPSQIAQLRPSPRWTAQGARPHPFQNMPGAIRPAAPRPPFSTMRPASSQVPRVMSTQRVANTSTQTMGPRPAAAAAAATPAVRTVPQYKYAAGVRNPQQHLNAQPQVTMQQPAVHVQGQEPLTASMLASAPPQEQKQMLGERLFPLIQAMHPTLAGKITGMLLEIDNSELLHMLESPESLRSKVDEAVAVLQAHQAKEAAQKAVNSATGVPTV
Test: MLLE binding blockers, Cy5 peptide tracer – biochemical, fluorescence polarization, Cy5-PAM2 peptide, secondary, miRNA deadenylation inhibitor project, dose response (AID 602260)
Assay type: functional
Settings: read-out: IC50_Mean
The source made the active and inactive calls.

* Cc1cccnc1NC(=S)NC(=O)c1oc2ccccc2c1C | > 66 µM (inactive)
* Cc1cc(C(=O)NC(=S)Nc2cccc(NC(=O)C(C)C)c2)ccc1[N+](=O)[O-] | > 66 µM (inactive)
* Cc1ccc(NC(S)=Nc2ccc(F)cc2)cc1 | > 66 µM (inactive)
* CCOC(=O)c1sc(NC(=S)NC(=O)c2ccco2)nc1C | > 66 µM (inactive)
* COc1ccc(NC(=S)N/N=C/c2ccc(F)cc2)cc1OC | > 66 µM (inactive)
* CN1c2ccccc2C(O)=C(C(S)=Nc2ccc(F)c(Cl)c2)S1(=O)=O | > 66 µM (inactive)
* Cc1cccc(NC(=O)C(NS(=O)(=O)c2ccc3c(c2)CCC(=O)N3)c2ccccc2)n1 (stereo not drawn) | > 66 µM (inactive)

# input for lookup
Field request: IC50 | item: "O=C(O)CCn1cc(C=C2C(=O)NC(=S)NC2=O)c(-c2ccccc2)n1"
> 66 µM (inactive)

----------
Biological target: Protein skinhead-1 (Caenorhabditis elegans, UniProt P34707)
Sequence (P34707 whole entry): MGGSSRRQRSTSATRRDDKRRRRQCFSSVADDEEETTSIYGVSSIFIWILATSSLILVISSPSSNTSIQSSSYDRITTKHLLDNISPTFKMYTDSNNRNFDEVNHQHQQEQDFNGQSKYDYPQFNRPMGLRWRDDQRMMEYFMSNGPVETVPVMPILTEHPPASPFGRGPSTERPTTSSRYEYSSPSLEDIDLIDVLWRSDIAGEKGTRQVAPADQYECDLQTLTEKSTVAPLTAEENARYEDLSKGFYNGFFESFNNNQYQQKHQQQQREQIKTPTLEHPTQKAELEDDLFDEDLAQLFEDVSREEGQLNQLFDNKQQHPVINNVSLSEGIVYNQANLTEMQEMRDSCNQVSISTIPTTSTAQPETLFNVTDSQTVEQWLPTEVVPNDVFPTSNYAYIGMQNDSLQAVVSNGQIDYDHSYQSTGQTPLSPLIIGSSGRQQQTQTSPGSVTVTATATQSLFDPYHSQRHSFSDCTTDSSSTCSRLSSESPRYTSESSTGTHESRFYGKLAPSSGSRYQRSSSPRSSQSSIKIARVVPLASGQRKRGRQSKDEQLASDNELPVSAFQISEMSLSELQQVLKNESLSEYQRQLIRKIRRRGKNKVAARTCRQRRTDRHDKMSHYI
Assay type: functional
Active and inactive are the calls of the source.
The reply should name one outcome from 1 (active), 0 (inactive)

Which outcome was entered for the molecule "O=C(Nc1ccc2snnc2c1)N1CCSCC1" in this test?
0

Which outcome was entered for the molecule "O=C(c1cc(COc2ccc(F)cc2Cl)on1)N1C[C@H]2C[C@H]3C[C@@H](C2)C[C@H]1C3" in this test?
0

Which outcome was entered for the molecule "O=C(Nc1nccs1)c1ccc2ccccc2n1" in this test?
1

Which outcome was entered for the molecule CN(C)C(=O)CN1C(=O)NC2(CCc3ccccc32)C1=O (stereo not drawn) in this test?
0

Which outcome was entered for the molecule Cc1sc(NC(=O)c2ccco2)c(C(c2cccnc2)N2CCCC2)c1C (stereo not drawn) in this test?
0

Which outcome was entered for the molecule "Clc1ccc(Nc2nc(-c3cccs3)cs2)nc1" in this test?
1

Which outcome was entered for the molecule "COc1ccc(Nc2nnc(SCC(=O)/C=C3/N(C)c4ccccc4C3(C)C)s2)cc1" in this test?
0

Which outcome was entered for the molecule CN(C)CC(O)c1ccc(C=Cc2ccc(Cl)cc2)cc1 (stereo not drawn) in this test?
0

----------
Quick list: IC50 per entry.
Biological target: Estrogen receptor (Homo sapiens);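 note: potency for inhibiting coactivator peptide recruitment to the receptor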
Sequence (P03372 whole entry): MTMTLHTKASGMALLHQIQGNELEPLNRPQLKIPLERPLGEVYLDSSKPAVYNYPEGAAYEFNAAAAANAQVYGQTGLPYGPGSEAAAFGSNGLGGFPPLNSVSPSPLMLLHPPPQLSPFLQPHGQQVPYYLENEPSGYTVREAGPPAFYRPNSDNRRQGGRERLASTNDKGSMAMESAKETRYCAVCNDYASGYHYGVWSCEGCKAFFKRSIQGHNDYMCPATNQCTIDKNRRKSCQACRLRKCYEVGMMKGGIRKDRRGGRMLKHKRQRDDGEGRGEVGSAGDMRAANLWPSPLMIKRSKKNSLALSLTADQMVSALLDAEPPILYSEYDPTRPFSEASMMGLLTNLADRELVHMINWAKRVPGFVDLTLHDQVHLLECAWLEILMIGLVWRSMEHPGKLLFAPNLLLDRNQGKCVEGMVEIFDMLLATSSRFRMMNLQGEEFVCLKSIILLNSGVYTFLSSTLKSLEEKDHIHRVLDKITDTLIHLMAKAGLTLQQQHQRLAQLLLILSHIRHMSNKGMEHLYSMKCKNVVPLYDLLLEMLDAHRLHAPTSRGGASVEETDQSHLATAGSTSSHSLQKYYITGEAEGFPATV
Calls of active or inactive are those of the source.

* Cc1nc2ccccc2c(=O)n1/N=C/c1c(O)ccc2oc3c(c12)CCCC3 | 29.2 µM (active)
* COc1cc(/C=C2/C(=N)N3C=CSC3=NC2=O)ccc1OCCCOc1ccccc1C | > 50 µM (not active)
* Cc1nn(-c2ccccc2)c2sc(C(=O)OCN3C(=O)c4ccccc4C3=O)cc12 | 9.75 µM (active)

# input for lookup
Form: Entry = "N#Cc1c(-c2ccccc2)cc(-c2ccco2)c(C#N)c1N" | System = Estrogen receptor (Homo sapiens) | IC50 = ____;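 note: potency for inhibiting coactivator peptide recruitment to the receptor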
33.5 µM (not active)
